The measured values listed here are drawn from ChEMBL document CHEMBL4007502.

# System: MCF7
# experiment_description: Cytotoxicity against human MCF7 cells assessed as growth inhibition after 72 hrs by neutral red assay
# Format: functional, cell-based
# cond: MCF7, 72 h
Could you please mark Condition met for values of IC50 below 40 µM and Condition not met for values at or above it?

Problem: I wonder whether O=c1cc(-c2ccc(O)c(O)c2)oc2cc(O)cc(O)c12 [LUTEOLIN] has IC50 below 40 µM. Can you tell?
Solution: Condition not met

Further cases:
Problem: Dear reviewer, please state whether `C[C@H]1[C@H](C)CC[C@]2(C)CC[C@]3(C)C(=CC[C@@H]4[C@@]5(C)CC[C@H](O)C(C)(C)[C@@H]5CC[C@]43C)[C@H]12` has IC50 strictly beneath 40 µM.
Solution: Condition not met

Problem: IC50 strictly < 40 µM for this compound? `C/C(=C\CC[C@](C)(O)[C@H]1CC[C@]2(C)[C@@H]1CC[C@@H]1[C@@]3(C)CCC(=O)C(C)(C)[C@@H]3CC[C@]12C)C(=O)O`
Solution: Condition not met

Problem: Is IC50 strictly under 40 µM for the entry `C=C(C)[C@@H]1CC[C@@]2(C)[C@H]1[C@H]1CC[C@@H]3[C@@]4(C)CCC(=O)C(C)(C)[C@@H]4CC[C@@]3(C)[C@]1(C)C[C@@H]2O` ?
Solution: Condition not met

Problem: Does the reported IC50 of `CC1(C)C(=O)CC[C@]2(C)[C@H]3C[C@@H](O)[C@@H]4[C@H](O)CC(=O)[C@@]4(C)[C@]3(C)CC[C@@H]12` stay below 40 µM?
Solution: Condition met

Problem: Does the reported IC50 of `CC1(C)[C@@H](O)CC[C@]2(C)[C@H]3C[C@@H](O)[C@@H]4C=CC(=O)[C@@]4(C)[C@]3(C)CC[C@@H]12` stay below 40 µM?
Solution: Condition met

Problem: Find out if reported IC50 for C[C@H]1[C@H](C)CC[C@]2(C(=O)O)CC[C@]3(C)C(=CC[C@@H]4[C@@]5(C)CC[C@H](O)C(C)(C)[C@@H]5CC[C@]43C)[C@H]12 [URSOLIC ACID] is less than 40 µM
Solution: Condition met

Problem: Quick check: IC50 of C/C(=C\CO)CCCC(C)CCCC(C)CCCC(C)C (stereo unspecified) under 40 µM?
Solution: Condition not met

Problem: Bench note: check whether CC1(C)CC[C@]2(C(=O)O)CC[C@]3(C)C(=CC[C@@H]4[C@@]5(C)CC[C@H](O)C(C)(C)[C@@H]5CC[C@]43C)[C@@H]2C1 [OLEANOLIC_ACID] shows IC50 below 40 µM
Solution: Condition not met

Problem: In plain terms, does C[C@H]1[C@H](C)CC[C@]2(CO)CC[C@]3(C)C(=CC[C@@H]4[C@@]5(C)CC[C@H](O)C(C)(C)[C@@H]5CC[C@]43C)[C@H]12 [UVAOL] come in under 40 µM for IC50?
Solution: Condition not met
